Hey, just so you know, these numbers are from patent US12673945B2.

- Tested on: KOPM28 cells
- experimental-protocol: human CML cell proliferation inhibition
- Assay type: cell-based
- stated-conditions: 72 hours, Cell Counting Kit-8
Reported GI50 is given for each of the following compounds.

Some compounds with recorded GI50:
| compound | endpoint-value |
| --- | --- |
| Cc1cc(F)c(C(=O)Nc2cc(CN3CCN(S(C)(=O)=O)CC3)cc(C(C)(C)C#N)c2)cc1C#Cc1cnc2c(Nc3cnn(C)c3)cccn12 [Example 34] | < 10 nM |
| Cc1cc(F)c(C(=O)Nc2ccc(Cn3cncn3)c(C(F)(F)F)c2)cc1C#Cc1cnc2c(Nc3cn[nH]c3)cccn12 [Example 114] | < 10 nM |
| Cc1cc(F)c(C(=O)Nc2ccc(CN3CCN(C)CC3)c(C(C)(C)C#N)c2)cc1C#Cc1cnc2c(Nc3cnn(C)c3)cccn12 [Example 39] | < 10 nM |
| Cc1cc(F)c(C(=O)Nc2cc(N3CCN(C)CC3)cc(C(C)(C)C#N)c2)cc1C#Cc1cnc2c(Nc3cn[nH]c3)cccn12 [Example 80] | < 10 nM |
| Cc1cc(F)c(C(=O)Nc2cc(CN3CCCN(C)CC3)cc(C(F)(F)F)c2)cc1C#Cc1cnc2c(Nc3cnn(C)c3)cccn12 [Example 67] | < 10 nM |

Proceed to the following item.
Tell me its GI50 given Cc1cc(F)c(C(=O)Nc2ccc(CN3CCN(CCO)CC3)c(C(C)(C)C#N)c2)cc1C#Cc1cnc2c(Nc3cnn(C)c3)cccn12 [Example 43] as the entry.
< 10 nM

* * *

Reported GI50 is given for each of the following molecules.
- Test system: KOPM28 cells
- experimental-protocol: human CML cell proliferation inhibition
- Assay type: cell-based
- stated-conditions: 72 hours, Cell Counting Kit-8

| structure-smiles | study-target | GI50 |
| --- | --- | --- |
| Cc1cc(F)c(C(=O)Nc2cc(N3CCN(C)C(=O)C3)cc(C(C)(C)C#N)c2)cc1C#Cc1cnc2c(Nc3cnn(C)c3)cccn12 | KOPM28 cells | < 10 nM |
| Cc1cc(F)c(C(=O)Nc2cc(CN3CCN(CCO)CC3)cc(C(C)(C)C#N)c2)cc1C#Cc1cnc2c(Nc3cnn(C)c3)cccn12 | KOPM28 cells | < 10 nM |
| Cc1cc(F)c(C(=O)Nc2ccc(CN3CCN(CCO)CC3)c(C(C)(C)C#N)c2)cc1C#Cc1cnc2c(Nc3cn[nH]c3)cccn12 | KOPM28 cells | < 10 nM |
| Cc1cn(-c2cc(NC(=O)c3cc(C#Cc4cnc5c(Nc6cnn(C)c6)cccn45)c(C)cc3Cl)cc(C(F)(F)F)c2)cn1 | KOPM28 cells | < 10 nM |
| Cc1cc(F)c(C(=O)Nc2cc(N3CCN(C)C(=O)C3)cc(C(F)(F)F)c2)cc1C#Cc1cnc2c(Nc3cnn(C)c3)cccn12 | KOPM28 cells | < 10 nM |

Tell me its GI50 given Cc1cc(F)c(C(=O)Nc2cc(CN3CCN(C)CC3)cc(C(F)(F)F)c2)cc1C#Cc1cnc2c(Nc3cn[nH]c3)cccn12 as the entry.
< 10 nM

Tell me its GI50 given Cc1cc(F)c(C(=O)Nc2ccc(Cn3ccnc3)c(C(C)(C)C#N)c2)cc1C#Cc1cnc2c(Nc3cnn(C)c3)cccn12 as the entry.
< 10 nM

Tell me its GI50 given Cc1cc(F)c(C(=O)Nc2cc(CN3CCN(C)C(=O)C3)cc(C(C)(C)C#N)c2)cc1C#Cc1cnc2c(Nc3cnn(C)c3)cccn12 as the entry.
< 10 nM

* * *

- Tested on: T315I-TCCS cells
- experimental-protocol: human CML cell proliferation inhibition
- Type: cell-based
- stated-conditions: 72 hours, Cell Counting Kit-8
Reported GI50 is given for each of the following compounds.

Some compounds with recorded GI50:
| compound | quantity-name | endpoint-value |
| --- | --- | --- |
| Cc1cc(F)c(C(=O)Nc2cc(CN3CCN(CC(F)(F)F)CC3)cc(C(C)(C)C#N)c2)cc1C#Cc1cnc2c(Nc3cnn(C)c3)cccn12 [Example 32] | GI50 | > 100 nM |
| Cc1cn(-c2cc(NC(=O)c3cc(C#Cc4cnc5c(Nc6cnn(C)c6)cccn45)c(C)cc3Cl)cc(C(F)(F)F)c2)cn1 [Example 14] | GI50 | 100 nM |

Proceed to the following item.
Tell me its GI50 given Cc1cc(F)c(C(=O)Nc2cc(CN3CC(OC(C)C)C3)cc(C(F)(F)F)c2)cc1C#Cc1cnc2c(Nc3cnn(C)c3)cccn12 [Example 72] as the entry.
> 100 nM

* * *

- System: KOPM28 cells
- experimental-protocol: human CML cell proliferation inhibition
- Assay type: cell-based
- stated-conditions: 72 hours, Cell Counting Kit-8
Reported GI50 is given for each of the following compounds.

| compound | quantity-name | endpoint-value |
| --- | --- | --- |
| Cc1cc(F)c(C(=O)Nc2ccc(CN3CCN(CCO)CC3)c(C(F)(F)F)c2)cc1C#Cc1cnc2c(Nc3cn[nH]c3)cccn12 [Example 111] | GI50 | < 10 nM |

Tell me its GI50 given Cc1cc(F)c(C(=O)Nc2ccc(Oc3ccncc3)c(C(F)(F)F)c2)cc1C#Cc1cnc2c(Nc3cnn(C)c3)cccn12 [Example 65] as the entry.
< 10 nM

Tell me its GI50 given Cc1cc(F)c(C(=O)Nc2cc(-c3ccncc3)cc(C(F)(F)F)c2)cc1C#Cc1cnc2c(Nc3cn[nH]c3)cccn12 [Example 97] as the entry.
< 10 nM

Tell me its GI50 given Cc1cn(-c2cc(NC(=O)c3ccc(C)c(C#Cc4cnc5c(Nc6cnn(C)c6)cccn45)c3F)cc(C(F)(F)F)c2)cn1 [Example 6] as the entry.
100 nM

Tell me its GI50 given Cc1cc(F)c(C(=O)Nc2ccc(CN3CCN(C)CC3)c(C(F)(F)F)c2)cc1C#Cc1cnc2c(Nc3cn[nH]c3)cccn12 [Example 109] as the entry.
< 10 nM

Tell me its GI50 given Cc1cc(F)c(C(=O)Nc2cc(CN3CCN(C)C(=O)C3)cc(C(F)(F)F)c2)cc1C#Cc1cnc2c(Nc3cnn(C)c3)cccn12 [Example 71] as the entry.
< 10 nM

Tell me its GI50 given Cc1cc(F)c(C(=O)Nc2ccc(CN3CCN(S(C)(=O)=O)CC3)c(C(F)(F)F)c2)cc1C#Cc1cnc2c(Nc3cnn(C)c3)cccn12 [Example 60] as the entry.
100 nM

Tell me its GI50 given Cc1cc(F)c(C(=O)Nc2ccc(CN3CCN(C)C(=O)C3)c(C(F)(F)F)c2)cc1C#Cc1cnc2c(Nc3cnn(C)c3)cccn12 [Example 58] as the entry.
< 10 nM

Tell me its GI50 given Cc1cc(F)c(C(=O)Nc2cc(N3CCN(C)CC3)cc(C(C)(C)C#N)c2)cc1C#Cc1cnc2c(Nc3cnn(C)c3)cccn12 [Example 20] as the entry.
< 10 nM

Tell me its GI50 given Cc1cc(F)c(C(=O)Nc2ccc(CN3CCN(S(C)(=O)=O)CC3)c(C(C)(C)C#N)c2)cc1C#Cc1cnc2c(Nc3cn[nH]c3)cccn12 [Example 94] as the entry.
< 10 nM

Tell me its GI50 given Cc1cc(F)c(C(=O)Nc2ccc(CN3CCC(N(C)C)C3)c(C(F)(F)F)c2)cc1C#Cc1cnc2c(Nc3cnn(C)c3)cccn12 (stereo not drawn) [Example 59] as the entry.
< 10 nM

Tell me its GI50 given Cc1cc(F)c(C(=O)Nc2cc(CN3CCOCC3)cc(C(F)(F)F)c2)cc1C#Cc1cnc2c(Nc3cnn(C)c3)cccn12 [Example 66] as the entry.
< 10 nM

* * *

- Tested on: TCCS cells
- experimental-protocol: human CML cell proliferation inhibition
- Type: cell-based
- stated-conditions: 72 hours, Cell Counting Kit-8
Reported GI50 is given for each of the following compounds.

Some compounds with recorded GI50:
| compound | GI50 |
| --- | --- |
| Cc1cc(F)c(C(=O)Nc2cc(CN3CCC(N(C)C)C3)cc(C(F)(F)F)c2)cc1C#Cc1cnc2c(Nc3cnn(C)c3)cccn12 (stereo not drawn) [Example 68] | < 10 nM |
| Cc1cc(F)c(C(=O)Nc2ccc(CN3CCC(N(C)C)C3)c(C(C)(C)C#N)c2)cc1C#Cc1cnc2c(Nc3cn[nH]c3)cccn12 (stereo not drawn) [Example 91] | < 10 nM |

Proceed to the following item.
Tell me its GI50 given Cc1cc(F)c(C(=O)Nc2cc(-c3ccncc3)cc(C(F)(F)F)c2)cc1C#Cc1cnc2c(Nc3cnn(C)c3)cccn12 [Example 52] as the entry.
< 10 nM

* * *

- Tested on: T315I-TCCS cells
- experimental-protocol: human CML cell proliferation inhibition
- Assay type: cell-based
- stated-conditions: 72 hours, Cell Counting Kit-8
- Protocol: In order to evaluate the therapeutic effect of the compound according to the present invention on chronic myelogenous leukemia (CML), the following experiment was performed, and the results are shown in Table 6 below. Inhibitory activity to Bcr-Abl kinase was evaluated through the experiment using TCCS and KOPM28 cells, and inhibitory activity to T315I-Bcr-Abl kinase was evaluated through the experiment using T315I-TCCS and T315I-KOPM28 cells. […]
quantity-name: GI50

Some compounds with recorded GI50:
| compound | GI50 |
| --- | --- |
| Cc1cc(F)c(C(=O)Nc2cc(CN3CCN(C(C)C)CC3)cc(C(C)(C)C#N)c2)cc1C#Cc1cnc2c(Nc3cnn(C)c3)cccn12 [Example 33] | 100 nM |
| Cc1cc(F)c(C(=O)Nc2cc(-c3cnn(C)c3)cc(C(C)(C)C#N)c2)cc1C#Cc1cnc2c(Nc3cn[nH]c3)cccn12 [Example 77] | 100 nM |
| Cc1cc(F)c(C(=O)Nc2ccc(CN3CCCN(C)CC3)c(C(C)(C)C#N)c2)cc1C#Cc1cnc2c(Nc3cnn(C)c3)cccn12 [Example 42] | 100 nM |
| Cc1cc(F)c(C(=O)Nc2cc(CN3CCN(C)CC3)cc(C(C)(C)C#N)c2)cc1C#Cc1cnc2c(Nc3cn[nH]c3)cccn12 [Example 84] | 100 nM |
| Cc1cc(F)c(C(=O)Nc2cc(-c3cccnc3)cc(C(C)(C)C#N)c2)cc1C#Cc1cnc2c(Nc3cnn(C)c3)cccn12 [Example 18] | 100 nM |

Tell me its GI50 given Cc1cc(F)c(C(=O)Nc2ccc(CN3CCN(S(C)(=O)=O)CC3)c(C(C)(C)C#N)c2)cc1C#Cc1cnc2c(Nc3cn[nH]c3)cccn12 [Example 94] as the entry.
> 100 nM

Tell me its GI50 given Cc1cc(F)c(C(=O)Nc2ccc(Oc3ccncc3)c(C(F)(F)F)c2)cc1C#Cc1cnc2c(Nc3cnn(C)c3)cccn12 [Example 65] as the entry.
100 nM

Tell me its GI50 given Cc1cn(-c2cc(NC(=O)c3ccc(C)c(C#Cc4cnc5c(Nc6cnn(C)c6)cccn45)c3F)cc(C(C)(C)C#N)c2)cn1 [Example 3] as the entry.
100 nM

Tell me its GI50 given Cc1cc(F)c(C(=O)Nc2cc(-c3cnn(C)c3)cc(C(F)(F)F)c2)cc1C#Cc1cnc2c(Nc3cnn(C)c3)cccn12 [Example 54] as the entry.
100 nM

Tell me its GI50 given Cc1cn(-c2cc(NC(=O)c3cc(C#Cc4cnc5c(Nc6cnn(C)c6)cccn45)c(C)cc3F)cc(C(C)(C)C#N)c2)cn1 [Example 1] as the entry.
< 10 nM

Tell me its GI50 given Cc1ccc(C(=O)Nc2cc(Oc3ccncc3)cc(C(F)(F)F)c2)c(F)c1C#Cc1cnc2c(Nc3cnn(C)c3)cccn12 [Example 9] as the entry.
100 nM

Tell me its GI50 given Cc1cc(F)c(C(=O)Nc2cc(N3CCN(C)CC3)cc(C(C)(C)C#N)c2)cc1C#Cc1cnc2c(Nc3cn[nH]c3)cccn12 [Example 80] as the entry.
100 nM

Tell me its GI50 given Cc1cc(F)c(C(=O)Nc2cc(Cn3cncn3)cc(C(F)(F)F)c2)cc1C#Cc1cnc2c(Nc3cn[nH]c3)cccn12 [Example 108] as the entry.
100 nM
